Kindly supply the reported MTD at 0.25 h values for the records listed here.
experiment: Toxicity in Sprague-Dawley rat assessed as maximum tolerated dose administered via iv infusion for 15 mins; format: organism-based; conditions: in vivo

[[record]]
smiles_code = "CN[C@@H]1[C@H](O)[C@H](NC)[C@H]2O[C@]3(O)[C@H](O[C@@H]2[C@H]1O)O[C@H](C)C[C@H]3NC(=O)Cc1ccc(O)cn1"
test_result = "> 500 mg/kg"


For record `CN[C@@H]1[C@H](O)[C@H](NC)[C@H]2O[C@]3(O)[C@H](O[C@@H]2[C@H]1O)O[C@H](C)C[C@H]3NC(=O)Cc1ccc(Cl)cn1` the listed MTD at 0.25 h is 150 mg/kg

====

assay: Volume of distribution at steady state in male Sprague-Dawley rat at 10 mg/kg, iv administered as bolus injection and measured after 48 hrs by LC-MS/MS analysis; assay type: ADME, organism-based; settings: in vivo, read-out: Vdss
ASSAY_METRIC: Vd (L/kg)
Numbers only, in L/kg.

For record `CN[C@@H]1[C@H](O)[C@H](NC)[C@H]2O[C@]3(O)[C@H](O[C@@H]2[C@H]1O)O[C@H](C)C[C@H]3NC(=O)Cc1ccc(O)cn1` the listed Vd is 0.494

====

Kindly supply the reported MTD at 5 s values for the records listed here.
test: Toxicity in Sprague-Dawley rat assessed as maximum tolerated dose administered as iv bolus injection for 5 sec; type: organism-based; details: in vivo
Numbers only, in mg/kg.

[[record]]
smiles_code = "CN[C@@H]1[C@H](O)[C@H](NC)[C@H]2O[C@]3(O)[C@H](O[C@@H]2[C@H]1O)O[C@H](C)C[C@H]3NC(=O)Cc1ccc(O)cn1"
test_result = 200


For record `CN[C@@H]1[C@H](O)[C@H](NC)[C@H]2O[C@]3(O)[C@H](O[C@@H]2[C@H]1O)O[C@H](C)C[C@H]3NC(=O)Cc1ccc(Cl)cn1` the listed MTD at 5 s is 75

====

test: Toxicity in Sprague-Dawley rat assessed as maximum tolerated dose administered via iv infusion for 5 mins; type: organism-based; conditions: in vivo
ASSAY_METRIC: MTD at 5 min (mg/kg)
One number for each entry, in mg/kg.

[[record]]
smiles_code = "CN[C@@H]1[C@H](O)[C@H](NC)[C@H]2O[C@]3(O)[C@H](O[C@@H]2[C@H]1O)O[C@H](C)C[C@H]3NC(=O)Cc1ccc(Cl)cn1"
test_result = 100


For record `CN[C@@H]1[C@H](O)[C@H](NC)[C@H]2O[C@]3(O)[C@H](O[C@@H]2[C@H]1O)O[C@H](C)C[C@H]3NC(=O)Cc1ccc(O)cn1` the listed MTD at 5 min is 350

====

Kindly supply the reported MTD at 0.5 min values for the records listed here.
assay: Toxicity in Sprague-Dawley rat assessed as maximum tolerated dose administered as iv bolus injection for 30 sec; assay type: organism-based; conditions: in vivo
Answers are plain numbers, in mg/kg.

[[record]]
smiles_code = "CN[C@@H]1[C@H](O)[C@H](NC)[C@H]2O[C@]3(O)[C@H](O[C@@H]2[C@H]1O)O[C@H](C)C[C@H]3NC(=O)Cc1ccc(O)cn1"
unit_symbol = "mg/kg"
test_result = 200


For record `CN[C@@H]1[C@H](O)[C@H](NC)[C@H]2O[C@]3(O)[C@H](O[C@@H]2[C@H]1O)O[C@H](C)C[C@H]3NC(=O)Cc1ccc(Cl)cn1` the listed MTD at 0.5 min is 100
